From: patent US20190144550A1

test.system: T1, human EGFRvIII expressed on cells (human, UniProt P00533 298-1210)
T1 construct: the F98-npEGFRvIII line was obtained from ATCC and its construct is not described; also called F98-npEGFRvIII; F98-EGFRvIII
test.method.notes: flow cytometry, F98-npEGFRvIII cells; note: test concentration or dose not given here
Listed next: entries and their corresponding MFI.
Form: value (number only, do not type unit).

30D8 (antibody, V domains shown, Hybridoma supernatant (AlivaMab mouse); captured/detected via mouse Fc) VH: EVQLVESGGGLVKPGGSLRLSCEASGFTFSDAWMSWVRQAPGKGLEWVGRIKSKTDGGTTDYVVPLNGRFIISRDDSRNTLYLQLNNLKTEDTAVYYCTTVPGSYGYWGQGTLVTVSS VL: DIVMTQSPLSLPVTPGEPASISCRSSQSLLHNKRNNYLDWFLQKPGQSPQLLIYLASNRASGVPDRFSGGGSGTDFTLKISRVEAEDVGVYYCMQAQQTPITFGQGTRLEIK = 5160
20E12 (antibody, V domains shown, Hybridoma supernatant (AlivaMab mouse); captured/detected via mouse Fc) VH: EVNLVESGGGLVKPGGSLRLSCEASGFTFSYAWMSWVRQAPGKGLEWVGRIKSIADGGATDYAAPVRNRFTISRDDSRNTLYLEMHSLKTEDTAVYYCTTIPGNDAFDMWGQGTMVTVSS VL: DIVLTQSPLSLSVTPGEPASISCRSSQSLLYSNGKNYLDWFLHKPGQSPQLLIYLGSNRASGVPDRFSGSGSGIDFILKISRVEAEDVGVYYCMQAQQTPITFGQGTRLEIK = 3980
32G8 (antibody, V domains shown, Hybridoma supernatant (AlivaMab mouse); captured/detected via mouse Fc) VH: EVNLVESGGGLVKPGGSLRLSCEASGFTFSYAWMSWVRQAPGKGLEWVGRIKSITDGGVIDYAAPVRNRCTISRDDSRNTLYLEMHSLKTEDTAVYYCTTIPGNDDFDMWGQGRMVTVSS VL: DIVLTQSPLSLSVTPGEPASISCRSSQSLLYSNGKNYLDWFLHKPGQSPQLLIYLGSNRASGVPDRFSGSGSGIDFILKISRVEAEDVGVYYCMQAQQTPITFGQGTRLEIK = 3730
20G5 (antibody, V domains shown, Hybridoma supernatant (AlivaMab mouse); captured/detected via mouse Fc) VH: EVQLVESGGDLVKPGGSLRLSCAASGFTFTNAWMSWVRQAPGKGLEWVGRIKSKIDGGTTDYAAPVKGRFIISRDDSKNTLSLQMNSLKTEDTAMYYCTTAPGGPFDYWGQGSLVTVSS VL: DIVLTQSPLSLPVTPGEPASISCRSSQSLLYSDRRNYLDWFLQKPGQSPHLLIYLGSYRASGVPDRFSGSGSGTDFTLKISRVEAEDVGVYYCMQALQIPITFGQGTRLEIK = 4640
26B9 (antibody, V domains shown, Hybridoma supernatant (AlivaMab mouse); captured/detected via mouse Fc) VH: EVQLVESWGVLVKPGGSLRLSCAASGFIFNNAWMSWVRQAPGKGLEWIGRIKSKSDGGTTDYAAPVKDRFTISRDDSKDTLYLQMNGLKTEDTAVYFCTTAPGGPFDYWGQGTLVTVSS VL: DIVLTQSPLSLPVTPGEPASISCRSSQSLLHRDGFNYLDWFLQKPGQSPQLLIYLASSRASGVPDRFSGSDSGTDFTLKISRVEAEDVGVYYCMQALQTPITFGQGTRLEIK = 5400

# input Reported MFI, binder 34E7 (antibody, V domains shown, Hybridoma supernatant (AlivaMab mouse); captured/detected via mouse Fc) VH: EVNLVESGGGLVKPGGSLRLSCEASGFTFSYAWMSWVRQAPGKGLEWVGRIKSINDGGATDYASPVRNRFTISRDDSRNMLYLEMHSLKTEDTAVYYCTTIPGNDAFDMWGQGTLVTVSS VL: DIVLTQSPLSLSVTPGEPASISCRSTQSLLYSNGKNYLDWFLHKPGQSPQLLIFLGSIRASGVPDRFSGSGSGIDFILKISRVEAEDVGVYYCMQAQQTPITFGQGTRLEIK : ____
# output 4130
